# Test system: HepG2 cells
# Condition info: human, 18 h

- Item smiles: "COc1cccc2c1C(=O)c1c(O)c3c(c(O)c1C2=O)C[C@@](O)(C(=O)CO)C[C@@H]3O[C@H]1C[C@H](N2CCO[C@H](OC)C2)[C@H](O)[C@H](C)O1"
  Cytotoxicity to HepG2 cells (CTG): "cytotoxic to HepG2 cells"
- Item smiles: "CC(C)(C)c1ccc(C(=O)CCCN2CCC(OC(c3ccccc3)c3ccccc3)CC2)cc1"
  Cytotoxicity to HepG2 cells (CTG): "cytotoxic to HepG2 cells"
- Item smiles: "C/C=C(/C)C(=O)O[C@H]1C(C)=C2[C@H]([C@@H]1OC(=O)CCCCCCC)[C@@](C)(OC(C)=O)C[C@H](OC(=O)CCC)[C@@]1(O)[C@H]2OC(=O)[C@@]1(C)O"
  Cytotoxicity to HepG2 cells (CTG): "cytotoxic to HepG2 cells"

----------
# Assay: in vitro
# Condition info: human
Metric: IC50 at 24 h (µM)
The answer is to be given in µM; state only the numeric part.

Sample CC(C)(C)c1ccc(C(O)CCCN2CCC(C(O)(c3ccccc3)c3ccccc3)CC2)cc1 (stereo not shown) ; IC50 at 24 h observed: 6.7
